test: Hepatic persistence of Homo-SI/Hetero-SI mixtures in the female rat; assay type: in vivo, female rats; conditions: female, Sprague Dawley, rat, liver, oral, 3.8 mg/kg, D + 5, read-out: Hepatic content of total bromadiolone
readout: concentration at 5 day
Please give the number followed by its unit.

(Q) Given the compound O=c1oc2ccccc2c(O)c1C(CC(O)c1ccc(-c2ccc(Br)cc2)cc1)c1ccccc1 (stereo not shown) [Mixture 20/80, reference compound] , what is its reported concentration at 5 day?
(A) 16400 ng/g
